Tested on: cyBCMA
Experiment: Kinetics and affinity of cyBCMA/human IgG interactions by SPR (Bio-Rad Proteon XPR36)
Format: binding, cynomolgus
Conditions: 37° C.
observed-property: ka (1/Ms) cyBCMA @ 37° C.

- L3.PY/L1.PS/H2.QR: anti-BCMA antibody (antibody, V domains shown) VH: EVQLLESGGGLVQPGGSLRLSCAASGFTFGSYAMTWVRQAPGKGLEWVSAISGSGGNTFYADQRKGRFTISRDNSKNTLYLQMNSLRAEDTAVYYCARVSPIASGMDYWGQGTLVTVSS VL: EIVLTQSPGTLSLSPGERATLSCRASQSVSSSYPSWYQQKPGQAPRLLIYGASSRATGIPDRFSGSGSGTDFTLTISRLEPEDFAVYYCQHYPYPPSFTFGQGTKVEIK: 525000 M⁻¹ s⁻¹

Recorded ka (1/Ms) cyBCMA @ 37° C. for L3.PY/L1.PS/H2.LT: anti-BCMA antibody (antibody, V domains shown) VH: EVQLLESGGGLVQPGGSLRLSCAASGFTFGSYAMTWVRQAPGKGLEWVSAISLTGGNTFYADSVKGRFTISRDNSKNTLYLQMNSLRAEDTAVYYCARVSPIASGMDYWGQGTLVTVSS VL: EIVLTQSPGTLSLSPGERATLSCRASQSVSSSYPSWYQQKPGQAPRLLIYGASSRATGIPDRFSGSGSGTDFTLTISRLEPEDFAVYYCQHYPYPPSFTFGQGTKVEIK , please?
2.17e+06 M⁻¹ s⁻¹

The values you see were collected from patent US11814435B2.
